Experiment: chemical genetic growth profiling, strain panel (AID 1159580);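 further: tested at 20 µM; growth read once vehicle control cultures reached saturation at 30 °C; 1 = growth at the plate median or of vehicle wells; lower values mean less growth of the strain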
Conditions: S. cerevisiae deletion strains, growth OD, locus YDL040C, strain nat1, hits give low values
Among all 5,500 compounds or so, about 2,000 (36%) were called active. About 18% were inconclusive and are not listed. The list shows a part of the results.
Known normalized growth of a selection of compounds
Reply: number alone, nothing else.

Prompt: Field request: normalized growth | item: `COC(=O)Nc1nc2ccc(Sc3ccccc3)cc2[nH]1`
Response: 1.01

Prompt: # iterate: CC1(C)CC[C@]2(C(=O)O)CC[C@]3(C)C(=CCC4[C@@]5(C)CC[C@@H](O)C(C)(C)C5CC[C@]43C)C2C1 (stereo partly drawn)
Response: 1.01

Prompt: Now consider CC(C)CCCC1(C)C=Cc2c(O)c3c(c(CCC(C)C)c2O1)OC12C(CC4CC1C(C)(C)OC2(CCC(C)C(=O)O)C4O)C3=O (stereo not drawn) and answer again.
Response: 0.995

Prompt: Please answer likewise for CCCCCCCCCCCCCCC(C(=O)O)C(O)(CC(=O)OC)C(=O)O (stereo not drawn)
Response: 0.985

Prompt: Request: `COc1ccc2[nH]cc(CCN)c2c1`
Response: 0.991

Prompt: Would you mind doing COC(=O)C[C@H]1C(C)(C)C(=O)[C@@H]2CC3C4=CC(=O)O[C@@H](c5ccoc5)[C@]4(C)CCC3[C@@]1(C)C2=O (stereo partly drawn) as well?
Response: 0.99

Prompt: Try `Nc1ccc(S(=O)(=O)Nc2cnc3ccccc3n2)cc1` next.
Response: 1.01

Prompt: Ok, now `Nc1ccc(S(=O)(=O)Nc2ccnn2-c2ccccc2)cc1`
Response: 0.993

---

Assay: chemical genetic growth profiling, strain panel (AID 1159580)
Details: S. cerevisiae deletion strains, growth OD, locus YNL307C, strain MCK1 (second series), hits give low values
Screen size: about 5,500 compounds; about 2,000 (36%) were called active. Inconclusive results (about 18%) are left out. Some of the results follow.
Recorded normalized growth values for a group of compounds are listed next.
I'd appreciate a reply containing only the number, no unit.

The following compounds have reported results that may help.
>>> endpoint_value("Cc1csc(NC(=O)Nc2ccc(C(F)(F)F)cc2)c1Cl")
0.84
>>> endpoint_value("Clc1ccc2c(c1)c1ccccc1n2CN1CCOCC1")
0.602
>>> endpoint_value("O=C(c1ccc(Cl)cc1)N(Cc1ccccc1)Cc1cccnc1")
0.885
>>> endpoint_value("O=C(CSCc1csc2ccccc12)Nc1ccc(F)c(Cl)c1")
0.877
>>> endpoint_value("Cc1csc(NC(=O)Nc2ccc(C(F)(F)F)cc2)c1")
0.708
>>> endpoint_value("Fc1cccc(Cl)c1CSc1n[nH]c(-c2cc(C(F)(F)F)cc(C(F)(F)F)c2)n1")
0.744
>>> endpoint_value("CSc1n[nH]c(-c2cc(C(F)(F)F)cc(C(F)(F)F)c2)n1")
0.856
>>> endpoint_value("CCCc1nc(-c2ccccn2)[nH]c(=O)c1CC1CC1")
0.937

Prompt: Reported normalized growth, compound `O=C(Nc1ccc(Cl)cc1)SCc1c(Cl)cccc1Cl` : ____
Response: 0.721

---

Assay: chemical genetic growth profiling, strain panel (AID 1159580);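 further: tested at 20 µM; growth read once vehicle control cultures reached saturation at 30 °C; 1 = growth at the plate median or of vehicle wells; lower values mean less growth of the strain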
Conditions: S. cerevisiae deletion strains, growth OD, locus YLR342W, strain FKS1 (second series), hits give low values
Hit rate of the full screen: of about 5,500 compounds, about 2,000 (36%) were called active. Not shown: some 18% with an inconclusive outcome. The list shows a part of the results.
experimental.endpoint: normalized growth
Please state the value as a number alone, without comment.

The examples below pair each entry with its known result.
>>> endpoint_value("N[C@H](C(=O)O)[C@@H]1CC(Cl)=NO1")
0.573
>>> endpoint_value("CC(C)(Oc1ccc(CCNC(=O)c2ccc(Cl)cc2)cc1)C(=O)O")
1.05
>>> endpoint_value("Nc1ccc(S(=O)(=O)Nc2cnc3ccccc3n2)cc1")
1.02
>>> endpoint_value("N=C(N)c1ccc(OCCCCCOc2ccc(C(=N)N)cc2)cc1")
0.89
>>> endpoint_value("C[C@@H]1CC[C@]2(C(=O)O)CC[C@]3(C)C(=CCC4[C@@]5(C)CC[C@H](O)C(C)(C)C5CC[C@]43C)C2[C@H]1C (some centres not stated)")
1.02
>>> endpoint_value("C[C@@H]1OC(O[C@H]2[C@H](OC(=O)[C@]34CCC(C)(C)CC3C3=CCC5[C@@]6(C)CC[C@H](OC7O[C@@H](C)[C@H](O[C@@H]8OC[C@@H](O)[C@H](O)[C@H]8O)[C@@H](O)[C@H]7O)C(C)(C)C6CC[C@@]5(C)[C@]3(C)CC4O)OC[C@H](O)[C@H]2O)[C@H](O)[C@H](O)[C@H]1O[C@@H]1O[C@H](CO)[C@@H](O)[C@H](O)[C@H]1O (some centres not stated)")
0.927
>>> endpoint_value("CC1(C)CC[C@@]2(C(=O)O)C(C1)C1=CCC3[C@@]4(C)CC[C@H](O)C(C)(C)C4CC[C@@]3(C)[C@]1(C)C[C@@H]2O (some centres not stated)")
0.97
>>> endpoint_value("C/C=C(/C)C(=O)O[C@H]1CC[C@@]2(C)[C@@H]3CC[C@H]4[C@]5(O)C[C@H](O)[C@@]6(O)[C@@H](CN7C[C@@H](C)CC[C@H]7[C@@]6(C)O)[C@]5(O)C[C@@]42O[C@]13O")
1.05
>>> endpoint_value("CC(=O)Nc1ccc(OCC(O)CNC(C)C)cc1 (configuration not stated)")
1.02
>>> endpoint_value("Cc1ccc(S(=O)(=O)NC(=O)NN2CC3CCCC3C2)cc1 (configuration not stated)")
0.992

Prompt: Given the entry CC(C)CC(N(C)C)C1(c2ccc(Cl)cc2)CCC1 (configuration not stated) , report its measured normalized growth.
Response: 1.01

Prompt: Now the same for C[C@@H]1CC[C@H]2[C@@H](C)C(O)O[C@@H]3O[C@@]4(C)CC[C@@H]1[C@]32OO4 (some centres not stated)
Response: 0.483

---

The following compounds are listed with their measured normalized growth values.
Experiment: chemical genetic growth profiling, strain panel (AID 1159580);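 further: tested at 20 µM; growth read once vehicle control cultures reached saturation at 30 °C; 1 = growth at the plate median or of vehicle wells; lower values mean less growth of the strain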
Details: S. cerevisiae deletion strains, growth OD, locus YOR265W, strain rbl2, hits give low values
In all, about 5,500 compounds went through this assay and about 2,000 (36%) were called active. Roughly 18% stayed inconclusive and do not appear here. The list shows a part of the results.
Give only the figure.

>>> endpoint_value("COC(=O)Nc1nc2ccc(Sc3ccccc3)cc2[nH]1")
0.982

Prompt: Using the record for `COc1ccc2c3c([nH]c2c1)C(C)=NCC3` , report its normalized growth.
Response: 1

Prompt: Would you mind doing Nc1c2c(nc3ccccc13)CCCC2O (centres undefined) as well?
Response: 1

Prompt: Next record, please: `O=C(O)CC(O)(CC(=O)O)C(=O)O`
Response: 1.01

Prompt: Further, for CCOC(=O)OC(C)OC(=O)C1N2C(=O)C(NC(=O)[C@H](N)c3ccccc3)C2SC1(C)C (some centres undefined) ?
Response: 0.993

Prompt: Query `COc1ccc2[nH]cc(CCN)c2c1` next
Response: 0.991

Prompt: Follow-up entry: C#C[C@]1(O)CCC2C3CCC4=CC(=O)CC[C@@H]4C3CC[C@@]21CC (some centres undefined)
Response: 1

Prompt: For `N=C(N)SCCN` then?
Response: 1.01

Prompt: Repeat for the following compound: `Cc1ccc(-c2cc(C(F)(F)F)nn2-c2ccc(S(N)(=O)=O)cc2)cc1`
Response: 1.01

Prompt: Again, but for C/C=C(/C)C(=O)OC1CCC2(C)C3CCC4C5(O)CC(O)C6(O)C(CN7CC(C)CCC7C6(C)O)C5(O)CC42OC13O (centres undefined)
Response: 0.984

Prompt: Please answer likewise for COC(=O)Nc1nc2ccc(S(=O)c3ccccc3)cc2[nH]1 (centres undefined)
Response: 0.992

Prompt: Another compound to look at: `Nc1ccc(S(=O)(=O)Nc2ccnn2-c2ccccc2)cc1`
Response: 1

Prompt: Now the same for CC1(C)CC[C@]2(C(=O)O)CC[C@]3(C)C(=CCC4[C@@]5(C)CC[C@@H](O)C(C)(C)C5CC[C@]43C)C2C1 (some centres undefined)
Response: 1.02

Prompt: Param item: CC(CC(=O)C(O)C(C)(C)O)C1C(=O)CC2(C)C3=CCC4C(C)(C)C(OC5OCC(O)C(O)C5O)CCC45CC35C(O)CC12C (centres undefined)
Response: 1.01

---

Assay: chemical genetic growth profiling, strain panel (AID 1159580);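 further: tested at 20 µM; growth read once vehicle control cultures reached saturation at 30 °C; 1 = growth at the plate median or of vehicle wells; lower values mean less growth of the strain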
Conditions: S. cerevisiae deletion strains, growth OD, locus YPR167C, strain met16, hits give low values
The whole screen tested about 5,500 compounds, of which about 2,000 (36%) were called active. Roughly 18% stayed inconclusive and do not appear here. The list shows a part of the results.
experimental.endpoint: normalized growth
Give only the figure.

>>> endpoint_value("CCOC(=O)OC(C)OC(=O)C1N2C(=O)C(NC(=O)[C@H](N)c3ccccc3)C2SC1(C)C (stereo partly drawn)")
0.996
>>> endpoint_value("Cc1cc(C(C)(C)C)c(O)c(C(C)(C)C)c1")
0.985
>>> endpoint_value("NNC(=O)c1ccncc1")
0.981
>>> endpoint_value("C/C=C(/C)C(=O)O[C@@H]1[C@H](OC(C)=O)[C@@]2(CO)C(CC1(C)C)C1=CCC3[C@@]4(C)CC[C@H](O[C@@H]5O[C@H](C(=O)O)[C@@H](O[C@@H]6O[C@H](CO)[C@@H](O)[C@H](O)[C@H]6O)[C@H](O)[C@H]5O[C@@H]5O[C@H](CO)[C@@H](O)[C@H](O)[C@H]5O)[C@](C)(CO)C4CC[C@@]3(C)[C@]1(C)C[C@H]2O (stereo partly drawn)")
1.02
>>> endpoint_value("O=C(COc1ccc(Cl)cc1)N1CCN(Cc2ccc3c(c2)OCO3)CC1")
0.987
>>> endpoint_value("Nc1ccc(S(=O)(=O)Nc2ccnn2-c2ccccc2)cc1")
0.991
>>> endpoint_value("Cc1cc(O)cc(O)c1C(=O)O")
0.996
>>> endpoint_value("COC(=O)C[C@H]1C(C)(C)C2(O)OC34CC2C(=O)[C@]1(C)C3CC[C@]1(C)C4=CC(=O)O[C@H]1c1ccoc1 (stereo partly drawn)")
1.01

Shift focus to the following entry.
Prompt: Which normalized growth value is on record for CCC(C)C(NC)C(=O)O (stereo not drawn) ?
Response: 0.989
